Target: T1, rat CXCR5 (rat, UniProt P34997 1-374)
T1 construct: whole, on cells
T1 sequence (looked up): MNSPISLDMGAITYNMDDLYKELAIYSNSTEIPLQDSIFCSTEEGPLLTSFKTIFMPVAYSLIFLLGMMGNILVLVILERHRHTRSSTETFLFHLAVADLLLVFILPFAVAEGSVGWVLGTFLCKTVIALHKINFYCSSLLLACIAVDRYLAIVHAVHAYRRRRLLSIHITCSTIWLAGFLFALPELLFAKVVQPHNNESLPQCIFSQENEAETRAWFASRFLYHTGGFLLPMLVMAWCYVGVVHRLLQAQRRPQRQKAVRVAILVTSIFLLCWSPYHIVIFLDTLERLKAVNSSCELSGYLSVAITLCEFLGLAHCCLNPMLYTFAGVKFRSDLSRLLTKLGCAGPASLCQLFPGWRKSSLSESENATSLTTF
Test: FACS on cells expressing species orthologues

{"columns": ["binder", "binding result"],
 "data": [
  ["mAb 12A01 (antibody, V domains shown) VH: EVQLLESGGGLVQPGGSLRLSCAASGFTFSRYVMVWVRQAPGKGLDWVSGISPSGGVTRYADSVKGRFTISRDNSKNTLYLQMNSLRAEDTAMYYCARIRKEMTTISYFFDYWGQGTLVTVSS VL: DIQMTQSPDSLSASVGDRVTITCRASQGVDIYVAWYQQKPGKVPKLLMHSASTLASGVPSRFSGRGSGTDFTLTINSLQAEDVATYYCQSHNSAVVTFGQGTRLEIK", "no binding"],
  ["mAb 80D11 (antibody, V domains shown) VH: EVQLLESGGGLVQPGGSLRLSCAASGFTFSHYWMQWVRQAPGKGLEWVSSISSSGGKTRYADSVKGRFTISRDNSKNTLYLQMNSLRAEDTAVYYCATAGYSSGWGQGTLVTVSS VL: QSALTQPASVSGSPGQSITISCTGTSSDVGGYNYLSWYQQHPGKAPKLMIYGVSNRPSGVSTRFSGSKSGNTASLTISGLQAEDEADYYCSSYTSTGTRVFGGGTRLTVL", "no binding"],
  ["mAb 40C01 (antibody, V domains shown, also called 40C01 VH-VL; 40C01 parental molecule) VH: EVQLLESGGGLVQPGGSLRLSCAASGFTFSRYVMVWVRQAPGKGLDWVSGISPSGGVTRYADSVKGRFTISRDNSKNTLYLQMNSLRAEDTAMYYCARIRKEMTTISYFFDYWGQGTLVTVSS VL: DIQMTRAPDSLSASVGDRVTITCRASQGVDIYVAWYQQKPGKAPKLLMHSASTLASGVPSRFSGRGSGTDFTLTINSLQAEDVATYYCQSHNSAVVTFGQGTRLEIK", "no binding"]
]}

Reference source: patent US20160115235A1
